The measurements presented in this section are drawn from paper PMC5421785.

Target Entity: HLA-DRB1*04:01 (Homo sapiens, UniProt P01903+P01911, A100K/A169T/F76Y/I96L/K127E/L162R/M171V/N62H/P40V/Q125Y/R42H/S133A/S149N/S66Y/V115G/V209L/W38E)
Construct: EBV transformed homozygous cell lines were used as sources of MHC molecules; endogenous in cells; host or cells: EBV transformed homozygous cell lines
Protocol Details: HLA class II peptide binding, inhibition of radiolabeled peptide binding to purified MHC
Measurement Context: citrullinated 15-mer (X); purified MHC, inhibition of radiolabeled peptide binding; dash = IC50 >40,000 nM; read-out: DRB1*04:01 binding capacity, Cit peptide (IC50 nM)
Square brackets hold non-standard residues; d marks the D form. Peptide text beside a SMILES is read from it. Cit = NC(=O)NCCC[C@H](N)C(=O)O
Parameter Measured: IC50 (nM)
One number for each entry, in nM.

CC(C)C[C@H](NC(=O)[C@H](C)NC(=O)[C@H](CO)NC(=O)CNC(=O)[C@H](CC(C)C)NC(=O)[C@H](CO)NC(=O)[C@H](Cc1ccc(O)cc1)NC(=O)[C@@H](NC(=O)[C@H](CCCNC(N)=O)NC(=O)[C@@H](NC(=O)[C@H](CO)NC(=O)[C@@H](NC(=O)[C@@H](NC(=O)[C@@H](N)C(C)C)[C@@H](C)O)[C@@H](C)O)[C@@H](C)O)[C@@H](C)O)C(=O)N[C@@H](CCCNC(=N)N)C(=O)O [VTTSTXTYSLGSALR] (H-VTTST[Cit]TYSLGSALR-OH)
1480

For the next question, use this compound.
[in] If you can, please state the reported IC50 value of CC(C)[C@H](NC(=O)[C@H](Cc1ccc(O)cc1)NC(=O)[C@H](CO)NC(=O)[C@H](CCCNC(=N)N)NC(=O)[C@H](CO)NC(=O)[C@H](CO)NC(=O)[C@H](CO)NC(=O)[C@@H]1CCCN1C(=O)[C@H](CCCNC(N)=O)NC(=O)[C@H](CO)NC(=O)[C@H](C)N)C(=O)N[C@H](C(=O)N[C@H](C(=O)N[C@@H](CO)C(=O)N[C@H](C(=O)O)[C@@H](C)O)[C@@H](C)O)[C@@H](C)O [ASXPSSSRSYVTTST] (H-AS[Cit]PSSSRSYVTTST-OH) .
[out] 757

###

Give IC50 for every item shown.
Target Entity: HLA-DRB1*01:01 (Homo sapiens, UniProt P01903+P01911, A100R/D57E/F55L/F60I/F76Y/I96L/L162R/M171V/P40L/Q125E/R42F/V115G/Y59C)
Construct: EBV transformed homozygous cell lines were used as sources of MHC molecules; endogenous in cells; host or cells: EBV transformed homozygous cell lines
Protocol Details: HLA class II peptide binding, inhibition of radiolabeled peptide binding to purified MHC
Measurement Context: citrullinated peptide as listed (X at Cit position); read-out: DRB1*01:01 binding capacity Cit peptide (IC50 nM)
Square brackets hold non-standard residues; d marks the D form. Peptide text beside a SMILES is read from it. Cit = NC(=O)NCCC[C@H](N)C(=O)O
Give bare numbers, in nM.

CC(C)C[C@H](NC(=O)[C@H](C)NC(=O)[C@@H](NC(=O)[C@H](Cc1ccc(O)cc1)NC(=O)[C@@H](NC(=O)[C@H](Cc1ccccc1)NC(=O)[C@H](CCCNC(N)=O)NC(=O)[C@H](CO)NC(=O)[C@@H](N)CC(N)=O)[C@@H](C)O)[C@@H](C)O)C(=O)N[C@@H](CCCCN)C(=O)N[C@@H](CC(=O)O)C(=O)NCC(=O)N[C@@H](CS)C(=O)N[C@H](C(=O)N[C@@H](CCCCN)C(=O)O)[C@@H](C)O [NSXFTYTALKDGCTK] (H-NS[Cit]FTYTALKDGCTK-OH)
44

For the next question, use this compound.
[in] If you can, please state the reported IC50 value of CC[C@H](C)[C@H](NC(=O)[C@H](CO)NC(=O)[C@H](CCC(=O)O)NC(=O)[C@@H](NC(=O)[C@H](CCC(N)=O)NC(=O)[C@H](CC(N)=O)NC(=O)[C@H](CC(N)=O)NC(=O)[C@H](CC(C)C)NC(=O)[C@H](CO)NC(=O)[C@H](CCCCN)NC(=O)[C@H](CC(C)C)NC(=O)[C@@H](NC(=O)[C@H](C)NC(=O)[C@@H](N)CC(=O)O)[C@@H](C)O)[C@@H](C)CC)C(=O)N[C@@H](CCCNC(N)=O)C(=O)O [DATLKSLNNQIESIX] (H-DATLKSLNNQIESI[Cit]-OH) .
[out] 9.4

###

Target Entity: HLA-DRB1*01:01 (Homo sapiens, UniProt P01903+P01911, A100R/D57E/F55L/F60I/F76Y/I96L/L162R/M171V/P40L/Q125E/R42F/V115G/Y59C)
Construct: EBV transformed homozygous cell lines were used as sources of MHC molecules; endogenous in cells; host or cells: EBV transformed homozygous cell lines
Protocol Details: HLA class II peptide binding, inhibition of radiolabeled peptide binding to purified MHC
Measurement Context: citrullinated 15-mer (X); purified MHC, inhibition of radiolabeled peptide binding; dash = IC50 >40,000 nM; read-out: DRB1*01:01 binding capacity, Cit peptide (IC50 nM)
Square brackets hold non-standard residues; d marks the D form. Peptide text beside a SMILES is read from it. Cit = NC(=O)NCCC[C@H](N)C(=O)O
Parameter Measured: IC50 (nM)
Answers are plain numbers, in nM.

CC[C@H](C)[C@H](NC(=O)[C@H](CC(=O)O)NC(=O)[C@H](CCC(=O)O)NC(=O)[C@H](C)NC(=O)[C@H](CC(C)C)NC(=O)[C@H](CC(N)=O)NC(=O)[C@@H](N)CC(=O)O)C(=O)N[C@@H](CCSC)C(=O)N[C@@H](CCCNC(N)=O)C(=O)N[C@@H](CC(C)C)C(=O)N[C@@H](CCCNC(=N)N)C(=O)N[C@@H](CCC(=O)O)C(=O)N[C@@H](CCCCN)C(=O)N[C@@H](CC(C)C)C(=O)N[C@@H](CCC(N)=O)C(=O)O [DNLAEDIMXLREKLQ] (H-DNLAEDIM[Cit]LREKLQ-OH)
4690

Hi team, please reply with IC50 for each item in this list.
1. CC(C)C[C@H](NC(=O)[C@H](CCC(=O)O)NC(=O)[C@H](CCC(N)=O)NC(=O)[C@H](CC(C)C)NC(=O)[C@H](CCC(=O)O)NC(=O)[C@@H](NC(=O)[C@H](CCCCN)NC(=O)[C@H](CCC(=O)O)NC(=O)[C@H](CC(N)=O)NC(=O)[C@@H](NC(=O)[C@H](CCCNC(N)=O)NC(=O)[C@@H](NC(=O)[C@H](CC(N)=O)NC(=O)[C@H](CCCCN)NC(=O)[C@@H](N)Cc1ccccc1)[C@@H](C)O)[C@@H](C)O)C(C)C)C(=O)O [FKNTXTNEKVELQEL] (H-FKNT[Cit]TNEKVELQEL-OH)
2. CC(C)C[C@H](NC(=O)[C@H](CCC(N)=O)NC(=O)[C@H](CC(=O)O)NC(=O)[C@@H](NC(=O)[C@H](CCC(N)=O)NC(=O)[C@H](CCCNC(N)=O)NC(=O)[C@H](CCCNC(=N)N)NC(=O)[C@H](CC(C)C)NC(=O)[C@@H](N)CCC(=O)O)C(C)C)C(=O)N[C@H](C(=O)N[C@@H](CC(N)=O)C(=O)N[C@@H](CC(=O)O)C(=O)N[C@@H](CCCCN)C(=O)N[C@@H](C)C(=O)N[C@@H](CCCNC(=N)N)C(=O)O)[C@@H](C)O [ELRXQVDQLTNDKAR] (H-ELR[Cit]QVDQLTNDKAR-OH)
3. CC(C)C[C@H](NC(=O)[C@H](C)NC(=O)[C@H](CC(=O)O)NC(=O)[C@H](CC(N)=O)NC(=O)[C@H](CC(N)=O)NC(=O)[C@H](CCCNC(N)=O)NC(=O)[C@H](CC(N)=O)NC(=O)[C@H](C)NC(=O)[C@H](C)NC(=O)[C@H](CCC(=O)O)NC(=O)[C@H](CO)NC(=O)[C@H](CC(C)C)NC(=O)[C@H](CC(=O)O)NC(=O)[C@H](C)N)C(=O)N[C@@H](CCCNC(=N)N)C(=O)O [ADLSEAANXNNDALR] (H-ADLSEAAN[Cit]NNDALR-OH)

[out]
1. 9330
2. 2240
3. 7340

###

Target Entity: DRB1*12:01 (Homo sapiens, UniProt P01903+P01911, A100R/A169T/D57E/D86V/F55L/H45Y/K41T/L162R/M171V/P40S/Q125H/Q178H/Q39Y/Q99D/R42G/S66L/T262R/V114A/V67L/W38E/Y59H/Y61H/Y89S)
Protocol Details: HLA class II peptide binding, inhibition of radiolabeled peptide binding to purified MHC
Measurement Context: SE-, competition with radiolabeled peptide, two-day incubation, three or more independent experiments
Ends that are not written are not given here.
Parameter Measured: pIC50
Answers are plain numbers, as −log10 of the molar value.

Some entries whose results are on file:
VVLLVATEGRVRVNSAYQDK [Aggrecan 84–103 WT]
5.98
SAVRLRSSVPGVR [Vimentin 66–78 WT]
4.80

[in] If you can, please state the reported pIC50 value of NQDFTNRINKLKNS [Fibrinogen 78–91 WT] .
[out] 4.56
